Biological target: T1, DLG3_3, Q92796
T1 sequence (Q92796 374-475, limits assumed, looked up): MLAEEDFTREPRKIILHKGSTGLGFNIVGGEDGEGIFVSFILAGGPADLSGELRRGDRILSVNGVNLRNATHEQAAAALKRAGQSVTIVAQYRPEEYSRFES
Test: holdup assay
Parameters: key: below the threshold = too weak to quantify, mostly under pKd 3.1 to 4
Conditions: plain residues with an end cap or a label only (N-terminal biotin on a linker: ttds)
metric.name: pKd

DLDEEEDTHL [PODXL, O00592]: below the threshold
KQVVPFSSSV [GDA, Q9Y2T3]: below the threshold
NPDALPETLV [ARHGAP6, O43182]: below the threshold
